- STUDY_SYSTEM: T1, human LAG3 expressed on cells (human, UniProt P18627 23-525)
- T1 sequence (looked up): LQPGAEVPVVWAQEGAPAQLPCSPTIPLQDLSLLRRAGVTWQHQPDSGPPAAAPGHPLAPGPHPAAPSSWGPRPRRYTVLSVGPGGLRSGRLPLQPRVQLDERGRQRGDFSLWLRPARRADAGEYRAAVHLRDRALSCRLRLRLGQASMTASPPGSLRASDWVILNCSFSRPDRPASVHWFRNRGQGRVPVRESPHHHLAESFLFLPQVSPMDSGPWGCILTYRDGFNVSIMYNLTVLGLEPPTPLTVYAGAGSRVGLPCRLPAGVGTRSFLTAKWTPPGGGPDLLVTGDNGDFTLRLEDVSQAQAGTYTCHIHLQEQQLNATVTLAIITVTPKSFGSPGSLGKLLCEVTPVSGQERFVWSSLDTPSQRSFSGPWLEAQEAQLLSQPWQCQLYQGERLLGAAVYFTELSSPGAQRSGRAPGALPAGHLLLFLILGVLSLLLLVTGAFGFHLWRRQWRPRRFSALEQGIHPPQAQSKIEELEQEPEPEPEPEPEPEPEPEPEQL
- ASSAY: cell-based or functional assay
READOUT_LABEL: IL-2, % of BMS, at 100 ug/mL (%)
Only the number, expressed in %, is required.

Some solved cases for reference:
[[record]]
binder = "sdAb No. 24 (VHH, Fc of the tested form not described; also called sdAb 24; not shown: Fc part implied by anti-human Fc capture) VHH: QLQLVESGGGLVQPGGSLRLSCAASGFTLNEHAIGWFRQAPGKEREGVSCISSSDGSTYYHDSVKGRFTMSRDDAKNTVYLQMNSLKAEDTAIYYCAAALGRDCQGGQWKTSSWGQGTQVTVSS"
readout_label = "IL-2, % of BMS, at 100 ug/mL"
value = 48.2

[[record]]
binder = "sdAb No. 20 (VHH, Fc of the tested form not described; also called sdAb 20; not shown: Fc part implied by anti-human Fc capture) VHH: QVQLVESGGGLVQPGGSLRLSCAASGLTLDGYAVGWFRQAPGKDREGLSCISGSDGSTHYLDSVKGRFTISRDNAKSTMALQMNSLQFGDTAIYYCAARRGSCSGSWTYWGQGTQVTVSS"
readout_label = "IL-2, % of BMS, at 100 ug/mL"
value = 35.1

[[record]]
binder = "sdAb No. 25 (VHH, Fc of the tested form not described; also called sdAb 25; sdAb #25; not shown: Fc part implied by anti-human Fc capture and anti-human IgG Fc detection) VHH: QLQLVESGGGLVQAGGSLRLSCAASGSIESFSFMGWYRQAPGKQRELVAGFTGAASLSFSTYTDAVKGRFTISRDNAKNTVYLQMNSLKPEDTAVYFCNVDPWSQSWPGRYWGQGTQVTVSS"
readout_label = "IL-2, % of BMS, at 100 ug/mL"
value = 53.7

[[record]]
binder = "sdAb No. 17 (VHH, Fc of the tested form not described; also called sdAb 17; not shown: Fc part implied by anti-human Fc capture and anti-human IgG1 Fc detection) VHH: QLQLVESGGGLVQPGGSLRLSCAASGLTLDGYAIGWFRQAPGKEREGLACISGSDGSTHYLDSVKGRFTISRDNGKNTMALQMNSLQFGDTAIYYCAARRGSCSGSWTYWGQGTQVTVSS"
readout_label = "IL-2, % of BMS, at 100 ug/mL"
value = 42.2


Find the measured IL-2, % of BMS, at 100 ug/mL of sdAb No. 21 (VHH, Fc of the tested form not described; also called sdAb 21; not shown: Fc part implied by anti-human Fc capture) VHH: QLQLVESGGGLVQPGGSLRLSCAASGLTLDGYAIAWFRQAPGKEREGLSCISGTDGSTHYLDSVKGRFTISRDNGKNTMALQMNSLQFGDTAIYYCAARRGSCSGSWTYWGQGTQITVSS and report it.
35

Find the measured IL-2, % of BMS, at 100 ug/mL of sdAb No. 27 (VHH, Fc of the tested form not described; also called sdAb 27; not shown: Fc part implied by anti-human Fc capture and anti-human IgG Fc detection) VHH: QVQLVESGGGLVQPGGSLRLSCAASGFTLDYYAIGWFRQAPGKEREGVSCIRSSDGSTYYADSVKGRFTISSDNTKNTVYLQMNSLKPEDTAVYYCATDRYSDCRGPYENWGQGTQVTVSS and report it.
52.8
